Origin of measurements: paper PMC9482650

Biological target: T1, MPP6, Q9NZW5
T1 sequence (Q9NZW5 125-219, limits assumed, looked up): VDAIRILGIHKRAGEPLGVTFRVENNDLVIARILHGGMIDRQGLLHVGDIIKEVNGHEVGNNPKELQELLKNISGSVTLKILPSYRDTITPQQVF
Assay: holdup assay
Parameters: key: below the threshold = too weak to quantify, mostly under pKd 3.1 to 4
Conditions: plain residues with an end cap or a label only (N-terminal biotin on a linker: ado-ado)
recordedEndpoint: pKd

1. KSRPENGTVC [TMEM178B, H3BS89] | below the threshold
2. IGHEDLETAV [DGKI, O75912] | below the threshold
3. SQPLLVHDDV [KIT, P10721] | below the threshold
4. THHRKIHTRV [ZNF599, Q96NL3] | below the threshold
5. QQGLLPHSSC [TYRO3, Q06418] | below the threshold
6. ATKDKKITTV [EXOC4, Q96A65] | below the threshold
7. AHGSTRDQSI [KCNB1, Q14721] | below the threshold
8. YAEKRMLTEV [KCNA6, P17658] | 3.54

State the recorded pKd for this entry: VKQYADVEGF [HNRNPK, P61978]
3.7

Fill in: pKd of RDYTQSSSSL [GRM5, P41594] is ___
below the threshold

Please report the recorded pKd for KIEDVEITLV [FCHSD2, O94868] .
3.74

Any idea what its pKd is? The binder is KEKASTETEC [TRPM1, Q7Z4N2]
below the threshold

Which pKd reading was recorded for the binder PKSNSSKEYV [CLDN7, O95471] ?
below the threshold

Could you tell me which pKd is on file for GVHSNDHSVV [LPAR1, Q92633] ?
below the threshold

# query: pKd of entry PEKVSNTTVV [IGSF5, Q9NSI5]
below the threshold

Using the record for LPPPESESKV [KCNJ9, Q92806] , report its pKd.
below the threshold
